# assay summary: protein stability index of a GFP-peptide fusion (yeast GPS) (PSI 1-4); higher = more stable; sorted into four equal gates, so the index is relative within each strain
# settings: san1∆
value type: protein stability index
Could you respond with only the numeric value?

# count of solved cases: 6
record sequence: KGRYAPETGDHVVGRIA [RRP4]
protein stability index: 2.6

record sequence: YMDSMNEKVAVMRNTYN [GAL11]
protein stability index: 2.35

record sequence: TIVNDSNYDWLFQLLNA [RPN9]
protein stability index: 2.34

record sequence: AFQLADGIHYILNHIGQ [PRP8]
protein stability index: 2.71

record sequence: SETFLQFYVKRWKRFTI [CDC53]
protein stability index: 1.73

record sequence: IIRPILGKVRFANYKLL [SRB4]
protein stability index: 1.14

(Q) Entry under review: CAFLLTKIKDAEEDSLL [YJL039C/NUP192] . Reported protein stability index?
(A) 3.08

(Q) Another: RKRCKGTVGNSHKTTKE [RPL11A]
(A) 2.99

(Q) Another: TDEALFENVKLLAEYDN [MED4]
(A) 3.08

(Q) Another: EYWAQRKKKFVLDVDPK [ISW2]
(A) 3.03

(Q) Another: LESEAQKKATMSAEEAL [RPC34]
(A) 3.04

(Q) Another: KASVLEISPQDSIASVL [GAL11]
(A) 3.13

###

# assay summary: protein stability index of a GFP-peptide fusion (yeast GPS) (PSI 1-4); higher = more stable; sorted into four equal gates, so the index is relative within each strain
# settings: ubr1∆
sequences and their reported protein stability index
Could you respond with only the numeric value?

# count of solved cases: 5
record sequence: FLNEARDKAGRLAEVNL [RPO21]
protein stability index: 1.47

record sequence: GRPRYDTFGEGIIITDQ [BRR2]
protein stability index: 3.11

record sequence: VNNGNIPSQRGTSTTHG [SIR3]
protein stability index: 2.73

record sequence: IIVENSGTSGDEDVDVL [RPN2]
protein stability index: 3.52

record sequence: MHSYFIFKDLVTVFLFM [COB]
protein stability index: 1.34

(Q) Entry under review: FTIDAKPPISDSVFSFG [YLR335W/NUP2] . Reported protein stability index?
(A) 2.69

(Q) Another: GIDPQDLKKLNLNVYIQ [CDC53]
(A) 1.19

(Q) Another: TGQNFLTSNISSLVRSC [REC8]
(A) 2.96

(Q) Another: CISLSGVPNYLVQLEPH [SSN2]
(A) 2.2

(Q) Another: AVIESVVNQPTGKIVDV [FAS1]
(A) 2.39

###

# assay summary: protein stability index of a GFP-peptide fusion (yeast GPS) (PSI 1-4); higher = more stable; sorted into four equal gates, so the index is relative within each strain
# settings: doa10∆
Note to self: class labels come from recorded protein stability index, ranges listed here: lower level (below 2), middle level (2 to below 3), upper level (3 or more)

Previously resolved entries follow.
record sequence: KLDQDDEIYIPINGNEA [CSI1]
assigned label: upper level
//
record sequence: EDGLLEGLDELPKIIQL [SOH1]
assigned label: upper level
//
record sequence: IEPQVINYLALNAANYN [ECM29]
assigned label: upper level

(Q) Assign a category based on measured protein stability index for KHSVTEYIFEAHEIIKR [CDC53] and give only the class name.
(A) middle level

(Q) Another: EAIETCKNFEKTQLGST [GAL11]
(A) middle level

(Q) Another: PATTSQMAKDVTTFLNW [CYT1]
(A) upper level

(Q) Another: PAAANLDALVDCENFFN [YJL039C/NUP192]
(A) middle level

(Q) Another: SVVAKQLLNGQKIVVVR [RPL16A]
(A) lower level

(Q) Another: LSQPVSASKHEYSDNFP [SIR4]
(A) middle level

(Q) Another: EKLLETNVSKQNDFLFS [ECM29]
(A) middle level

###

# assay summary: protein stability index of a GFP-peptide fusion (yeast GPS) (PSI 1-4); higher = more stable; sorted into four equal gates, so the index is relative within each strain
# settings: san1∆
value type: protein stability index

# count of solved cases: 3
record sequence: TALEHKVVNGNSADAAY [FAS2]
value type: protein stability index
observed value: 3.05
--
record sequence: EIGLLPEDALVNDFSDI [SMC3]
value type: protein stability index
observed value: 3.19
--
record sequence: ETKTKKEKIKGLQDEIM [SMC4]
value type: protein stability index
observed value: 3.13

Now for another entry.
(Q) Entry under review: ENIQEGTSLTIQHIAAA [CDC53] . Reported protein stability index?
(A) 2.42

###

# assay summary: protein stability index of a GFP-peptide fusion (yeast GPS) (PSI 1-4); higher = more stable; sorted into four equal gates, so the index is relative within each strain
# settings: san1∆
sequences and their reported protein stability index
Could you respond with only the numeric value?

# count of solved cases: 5
record sequence: KYVHVSEVGNCSGSGMG [FAS2]
observed value: 2.92
//
record sequence: LQDELHKVSSQSTNLNR [YCS4]
observed value: 3.05
//
record sequence: ANETDKRPTPPSFTFGG [YOR098C/NUP1]
observed value: 2.96
//
record sequence: TYLNEVLEKDAAIVKKY [YGR119C/NUP57]
observed value: 2.99
//
record sequence: YENKQLYFPDDYPFTQL [POP1]
observed value: 2.93

(Q) Entry under review: LCQKSPVMADLNGGLQF [FAS2] . Reported protein stability index?
(A) 2.94

(Q) Another: MAKSKNHTAHNQTRKAH [RPL29]
(A) 1.96

(Q) Another: ANEEPNTENVESVPTPA [ITC1]
(A) 2.98

(Q) Another: AKKNNFIEDLAPEQQVQ [UBP6]
(A) 2.99

(Q) Another: GAHGNSDPVCLFVCNKD [POP3]
(A) 3.07

(Q) Another: ETKWDDADEKSSNLYET [YJR042W/NUP85]
(A) 3.02

(Q) Another: LNATKISPSAPSKDSFT [YAR002W/NUP60]
(A) 2.94

###

sequences and their reported protein stability index
# assay summary: protein stability index of a GFP-peptide fusion (yeast GPS) (PSI 1-4); higher = more stable; sorted into four equal gates, so the index is relative within each strain
# settings: ubr1∆
Could you respond with only the numeric value?

(Q) Entry under review: KLHEFYLLISKENKKRK [IRR1] . Reported protein stability index?
(A) 3.04

(Q) Another: DSSSVSEDSAVFKATSS [FAS1]
(A) 3.14

(Q) Another: GNKLVELMRIISRNGDT [SMC1]
(A) 3.28

(Q) Another: CRNDAVNWLAYTYLYVR [BRR2]
(A) 3.21

###

sequences and their reported protein stability index
# assay summary: protein stability index of a GFP-peptide fusion (yeast GPS) (PSI 1-4); higher = more stable; sorted into four equal gates, so the index is relative within each strain
# settings: ubr1∆
Could you respond with only the numeric value?

(Q) Entry under review: KLSKVQLYEDLCRYEDT [MED4] . Reported protein stability index?
(A) 3.21

###

sequences and their reported protein stability index
# assay summary: protein stability index of a GFP-peptide fusion (yeast GPS) (PSI 1-4); higher = more stable; sorted into four equal gates, so the index is relative within each strain
# settings: san1∆
Could you respond with only the numeric value?

record sequence: DDISRQVARTNLDGTKA [ROX3]
observed value: 3.09
//
record sequence: QQPQTNTAPGLGNTVST [YGR119C/NUP57]
observed value: 3.04
//
record sequence: DKYHPGYFGKVGMRYFH [RPL28]
observed value: 2.99
//
record sequence: ADKKDDSESNSEPIDLI [ITC1]
observed value: 3.02
//
record sequence: KQQDAEELFTQLFHSMS [UBP6]
observed value: 3.03
//
record sequence: KEAFEEEIKQSARNYDK [SMC1]
observed value: 3.06

(Q) Entry under review: KWAGIKTRKFVFNPPKP [CYT1] . Reported protein stability index?
(A) 3.05

(Q) Another: ALNMLPSEILHLILDKL [GRR1]
(A) 1.95

(Q) Another: NENNSNGGEDTSVENEG [REC8]
(A) 3.05

(Q) Another: LIRPSSKVIIKFLQVMQ [RPS22A]
(A) 2.02

(Q) Another: VSSKPSKPESSVLQLIV [MED1]
(A) 2.94

(Q) Another: HGINLQNKKNLKWVAVV [SSN2]
(A) 3.05

###

# assay summary: protein stability index of a GFP-peptide fusion (yeast GPS) (PSI 1-4); higher = more stable; sorted into four equal gates, so the index is relative within each strain
# settings: ubr1∆
Parameter threshold = 2. Response is Satisfied when protein stability index meets or exceeds it, else Not satisfied.

record sequence: FQLIDMKDKEINIQKYN [CSI1]
assigned label: Satisfied

(Q) Hi team, for EVQRILIELLTQMDGFD [RPT3] , is the recorded protein stability index at or above 2?
(A) Not satisfied

(Q) Another: TVAVMSYSGYDIEDALV [RET1]
(A) Satisfied

(Q) Another: LTGEWSTKFDYPPMPFD [FAS1]
(A) Satisfied
